pIC50: −log10 of the molar value.
Below are molecules with their pIC50 as measured on FAK (Homo sapiens, UniProt Q05397).
Sequence (Q05397 whole entry): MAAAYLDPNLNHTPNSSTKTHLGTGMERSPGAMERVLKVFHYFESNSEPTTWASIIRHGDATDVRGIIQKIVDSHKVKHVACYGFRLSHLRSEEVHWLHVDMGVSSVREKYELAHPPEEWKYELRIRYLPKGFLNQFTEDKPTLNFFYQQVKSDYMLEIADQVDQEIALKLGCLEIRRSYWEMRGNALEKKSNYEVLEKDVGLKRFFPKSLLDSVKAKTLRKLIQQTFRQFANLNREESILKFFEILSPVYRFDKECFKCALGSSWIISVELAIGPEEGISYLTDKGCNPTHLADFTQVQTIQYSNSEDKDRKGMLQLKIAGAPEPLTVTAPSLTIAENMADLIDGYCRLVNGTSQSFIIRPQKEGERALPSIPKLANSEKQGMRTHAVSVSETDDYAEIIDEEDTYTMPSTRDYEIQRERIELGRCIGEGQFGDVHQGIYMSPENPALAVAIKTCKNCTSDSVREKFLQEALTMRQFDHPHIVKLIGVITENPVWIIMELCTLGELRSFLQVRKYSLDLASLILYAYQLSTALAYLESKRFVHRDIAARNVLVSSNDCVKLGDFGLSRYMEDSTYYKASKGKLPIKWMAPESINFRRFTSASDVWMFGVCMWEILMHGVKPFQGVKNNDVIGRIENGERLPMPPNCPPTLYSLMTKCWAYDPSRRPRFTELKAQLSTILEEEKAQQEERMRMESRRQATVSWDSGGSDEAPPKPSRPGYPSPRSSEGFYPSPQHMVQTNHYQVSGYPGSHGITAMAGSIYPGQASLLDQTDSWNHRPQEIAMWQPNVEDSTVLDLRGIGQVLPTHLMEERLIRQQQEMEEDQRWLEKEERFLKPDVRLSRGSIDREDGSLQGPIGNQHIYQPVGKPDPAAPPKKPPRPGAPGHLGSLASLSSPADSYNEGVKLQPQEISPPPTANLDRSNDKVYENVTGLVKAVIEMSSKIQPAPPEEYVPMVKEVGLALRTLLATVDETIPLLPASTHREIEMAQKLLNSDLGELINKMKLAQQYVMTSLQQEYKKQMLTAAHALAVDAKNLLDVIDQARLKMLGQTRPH

[Q] Form field: reported pIC50 of `CCN1CCN(c2ccc(Nc3ncc4scc(-c5cccc(NS(C)(=O)=O)c5)c4n3)cn2)CC1`
[A] > 6.30

[Q] One more molecule: `CS(=O)(=O)Nc1cccc(-c2csc3cnc(Nc4ccc(N5CCOCC5)nc4)nc23)c1`
[A] > 6.00

[Q] Now the same for `CCN1CCN(c2ccc(Nc3ncc4scc(-c5cccc(C(=O)NC6CC6)c5)c4n3)cn2)CC1`
[A] > 6.30

[Q] Then what about the molecule `Cc1ccc(Nc2ncc3scc(-c4cccc(NS(C)(=O)=O)c4)c3n2)cn1` ?
[A] > 6.00
